Target under test: DRB1*04:05 (Homo sapiens, UniProt P01903+P01911, A100R/A169T/D86S/F76Y/I96L/K127E/L162R/M171V/N62H/P40V/Q125Y/R42H/S133A/S149N/S66Y/V115G/V209L/W38E)
Measurement description: biochemical
Where a SMILES comes first, the peptide text is derived from it.
Mark class 1 only for IC50 values smaller than 8 µM; exact matches and larger values are class 0.

Molecule: CC(C)C[C@H](NC(=O)[C@H](C)NC(=O)[C@@H](NC(=O)[C@H](Cc1ccccc1)NC(=O)[C@H](Cc1c[nH]c2ccccc12)NC(=O)[C@@H](N)CO)[C@@H](C)O)C(=O)N[C@H](C(=O)N[C@@H](CCC(N)=O)C(=O)N[C@@H](Cc1c[nH]cn1)C(=O)NCC(=O)N[C@@H](CCCCN)C(=O)N[C@@H](CCC(=O)O)C(=O)N[C@@H](CC(=O)O)C(=O)N[C@@H](CC(C)C)C(=O)N[C@@H](CCCCN)C(=O)O)[C@@H](C)O [Ncl_11] (H-SWFTALTQHGKEDLK-OH)
Label value: class 1
--
Molecule: CC[C@H](C)[C@H](NC(=O)[C@H](CCCNC(=N)N)NC(=O)[C@H](CCCNC(=N)N)NC(=O)[C@@H](NC(=O)[C@H](C)NC(=O)[C@H](CCCNC(=N)N)NC(=O)[C@H](CCCNC(=N)N)NC(=O)[C@H](Cc1ccc(O)cc1)NC(=O)[C@@H](N)Cc1ccc(O)cc1)[C@@H](C)O)C(=O)N[C@@H](CCCNC(=N)N)C(=O)NCC(=O)NCC(=O)N[C@@H](CC(=O)O)C(=O)NCC(=O)N[C@@H](CCCCN)C(=O)O [Ncl_P18] (H-YYRRATRRIRGGDGK-OH)
Label value: class 0
--
Molecule: CC[C@H](C)[C@H](NC(=O)CNC(=O)[C@H](CC(=O)O)NC(=O)[C@H](CCCCN)NC(=O)[C@@H](N)CC(N)=O)C(=O)N[C@H](C(=O)N[C@@H](Cc1c[nH]c2ccccc12)C(=O)N[C@H](C(=O)N[C@@H](C)C(=O)N[C@H](C(=O)N[C@@H](CCC(=O)O)C(=O)NCC(=O)N[C@@H](C)C(=O)N[C@@H](CC(C)C)C(=O)N[C@@H](CC(N)=O)C(=O)O)[C@@H](C)O)C(C)C)[C@@H](C)CC [Ncl_26] (H-NKDGIIWVATEGALN-OH)
Label value: class 1
--
Molecule: CSCC[C@H](NC(=O)[C@H](CCCCN)NC(=O)[C@H](CO)NC(=O)[C@H](CCC(=O)O)NC(=O)[C@H](CC(C)C)NC(=O)[C@H](CCC(N)=O)NC(=O)[C@H](CC(N)=O)NC(=O)[C@H](CC(C)C)NC(=O)[C@H](CCCNC(=N)N)NC(=O)[C@H](CC(=O)O)NC(=O)[C@H](CC(C)C)NC(=O)[C@H](CC(C)C)NC(=O)[C@H](CC(C)C)NC(=O)[C@@H](N)CC(C)C)C(=O)N[C@@H](CO)C(=O)O [Ncl_45] (H-LLLLDRLNQLESKMS-OH)
Label value: class 1
--
Molecule: CC[C@H](C)[C@H](NC(=O)[C@H](CCCNC(=N)N)NC(=O)[C@H](CC(C)C)NC(=O)[C@H](Cc1c[nH]cn1)NC(=O)CNC(=O)[C@@H](N)CCCNC(=N)N)C(=O)N[C@@H](C)C(=O)NCC(=O)N[C@@H](Cc1c[nH]cn1)C(=O)N[C@@H](Cc1c[nH]cn1)C(=O)N[C@@H](CC(C)C)C(=O)NCC(=O)N[C@@H](CCCNC(=N)N)C(=O)N[C@@H](CS)C(=O)N[C@@H](CC(=O)O)C(=O)O [Mem_30] (H-RGHLRIAGHHLGRCD-OH)
Label value: class 1

###

Target under test: DRB3*01:01 (Homo sapiens, UniProt P01903+P79483)
Measurement description: biochemical
Where a SMILES comes first, the peptide text is derived from it.

Compound: CC[C@H](C)[C@H](NC(=O)CNC(=O)[C@H](CC(=O)O)NC(=O)[C@H](CCCCN)NC(=O)[C@H](CC(N)=O)NC(=O)[C@H](C)NC(=O)CNC(=O)[C@H](Cc1ccc(O)cc1)NC(=O)[C@@H]1CCCN1C(=O)[C@@H](N)CC(C)C)C(=O)N[C@H](C(=O)N[C@@H](Cc1c[nH]c2ccccc12)C(=O)N[C@H](C(=O)N[C@@H](C)C(=O)N[C@H](C(=O)O)[C@@H](C)O)C(C)C)[C@@H](C)CC [Ncl_25] (H-LPYGANKDGIIWVAT-OH)
IC50: 13.8 µM

###

Target under test: DRB1*12:01 (Homo sapiens, UniProt P01903+P01911, A100R/A169T/D57E/D86V/F55L/H45Y/K41T/L162R/M171V/P40S/Q125H/Q178H/Q39Y/Q99D/R42G/S66L/T262R/V114A/V67L/W38E/Y59H/Y61H/Y89S)
Measurement description: biochemical
pIC50: −log10 of the molar value. Where a SMILES comes first, the peptide text is derived from it.
Experimental endpoint: pIC50

Molecule: CC(C)C[C@H](NC(=O)[C@H](CC(N)=O)NC(=O)[C@H](CCCCN)NC(=O)[C@@H](NC(=O)[C@H](CCCNC(=N)N)NC(=O)[C@H](CO)NC(=O)[C@H](Cc1ccc(O)cc1)NC(=O)[C@@H](NC(=O)[C@H](Cc1ccc(O)cc1)NC(=O)[C@H](Cc1ccccc1)NC(=O)[C@H](CO)NC(=O)[C@@H]1CCCN1C(=O)[C@H](CCCCN)NC(=O)[C@@H](NC(=O)[C@@H](N)CC(C)C)C(C)C)C(C)C)C(C)C)C(=O)O [Env_11] (H-LVKPSFYVYSRVKNL-OH)
Limit qualifier: =
Value reported: 5.87
//
Molecule: CC[C@H](C)[C@H](NC(=O)[C@H](CCC(N)=O)NC(=O)[C@H](CC(=O)O)NC(=O)[C@@H](N)CC(=O)O)C(=O)NCC(=O)N[C@@H](Cc1ccc(O)cc1)C(=O)N[C@@H](Cc1ccc(O)cc1)C(=O)N[C@@H](CCCNC(=N)N)C(=O)N[C@@H](CCCNC(=N)N)C(=O)N[C@@H](C)C(=O)N[C@H](C(=O)N[C@@H](CCCNC(=N)N)C(=O)N[C@@H](CCCNC(=N)N)C(=O)N[C@H](C(=O)N[C@@H](CCCNC(=N)N)C(=O)O)[C@@H](C)CC)[C@@H](C)O [Ncl_P17] (H-DDQIGYYRRATRRIR-OH)
Limit qualifier: <
Value reported: 4.40

###

Below: a set of entries, each annotated with reported pIC50.
Target under test: DRB1*03:01 (Homo sapiens, UniProt P01903+P01911, A100K/A102G/A103R/A169T/F55Y/I96L/K41T/L162R/M171V/P40S/Q125H/Q178H/Q39Y/R42S/S66N/T106N/T262R/W38E/Y61H)
Sequence (P01903 26-254 limits assumed, other chains not shown): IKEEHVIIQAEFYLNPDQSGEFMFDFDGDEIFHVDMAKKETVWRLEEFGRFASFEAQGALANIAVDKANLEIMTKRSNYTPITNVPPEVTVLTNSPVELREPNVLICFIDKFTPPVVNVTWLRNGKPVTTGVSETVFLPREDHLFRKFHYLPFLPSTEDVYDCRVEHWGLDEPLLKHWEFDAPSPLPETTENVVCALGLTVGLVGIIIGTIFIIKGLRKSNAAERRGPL
Measurement description: biochemical
pIC50: −log10 of the molar value. Where a SMILES comes first, the peptide text is derived from it.
Experimental endpoint: pIC50

Molecule: CC(C)C[C@H](NC(=O)[C@H](CCC(N)=O)NC(=O)[C@H](CC(N)=O)NC(=O)[C@H](CC(C)C)NC(=O)[C@H](CCCNC(=N)N)NC(=O)[C@H](CC(=O)O)NC(=O)[C@H](CC(C)C)NC(=O)[C@H](CC(C)C)NC(=O)[C@H](CC(C)C)NC(=O)[C@H](CC(C)C)NC(=O)[C@H](C)NC(=O)[C@H](CC(C)C)NC(=O)[C@H](C)NC(=O)[C@H](C)NC(=O)[C@@H](N)CC(=O)O)C(=O)O [Ncl_44] (H-DAALALLLLDRLNQL-OH)
Value reported: 5.61
--
Molecule: CSCC[C@H](NC(=O)[C@H](CCCCN)NC(=O)[C@H](CO)NC(=O)[C@H](CCC(=O)O)NC(=O)[C@H](CC(C)C)NC(=O)[C@H](CCC(N)=O)NC(=O)[C@H](CC(N)=O)NC(=O)[C@H](CC(C)C)NC(=O)[C@H](CCCNC(=N)N)NC(=O)[C@H](CC(=O)O)NC(=O)[C@H](CC(C)C)NC(=O)[C@H](CC(C)C)NC(=O)[C@H](CC(C)C)NC(=O)[C@@H](N)CC(C)C)C(=O)N[C@@H](CO)C(=O)O [Ncl_45] (H-LLLLDRLNQLESKMS-OH)
Value reported: 5.92
--
Molecule: CC[C@H](C)[C@H](NC(=O)[C@H](Cc1c[nH]cn1)NC(=O)[C@H](CCCCN)NC(=O)[C@H](CC(N)=O)NC(=O)[C@H](CC(C)C)NC(=O)[C@H](CC(C)C)NC(=O)[C@@H](NC(=O)[C@@H](NC(=O)[C@H](CCC(N)=O)NC(=O)[C@H](CC(=O)O)NC(=O)[C@H](CCCCN)NC(=O)[C@@H](N)Cc1ccccc1)C(C)C)[C@@H](C)CC)C(=O)N[C@@H](CC(=O)O)C(=O)N[C@@H](C)C(=O)N[C@@H](Cc1ccc(O)cc1)C(=O)O [Ncl_70] (H-FKDQVILLNKHIDAY-OH)
Value reported: 5.19
--
Molecule: CC[C@H](C)[C@H](NC(=O)CNC(=O)[C@H](CC(=O)O)NC(=O)[C@H](CCCCN)NC(=O)[C@@H](N)CC(N)=O)C(=O)N[C@H](C(=O)N[C@@H](Cc1c[nH]c2ccccc12)C(=O)N[C@H](C(=O)N[C@@H](C)C(=O)N[C@H](C(=O)N[C@@H](CCC(=O)O)C(=O)NCC(=O)N[C@@H](C)C(=O)N[C@@H](CC(C)C)C(=O)N[C@@H](CC(N)=O)C(=O)O)[C@@H](C)O)C(C)C)[C@@H](C)CC [Ncl_26] (H-NKDGIIWVATEGALN-OH)
Value reported: 5.33
